Here the recorded fold change of affinity is given for each entry.
Measured on: T1, Human CD3eg linker (human)
T1 construct: single-chain construct; also called recombinant human CD3
T1 chain: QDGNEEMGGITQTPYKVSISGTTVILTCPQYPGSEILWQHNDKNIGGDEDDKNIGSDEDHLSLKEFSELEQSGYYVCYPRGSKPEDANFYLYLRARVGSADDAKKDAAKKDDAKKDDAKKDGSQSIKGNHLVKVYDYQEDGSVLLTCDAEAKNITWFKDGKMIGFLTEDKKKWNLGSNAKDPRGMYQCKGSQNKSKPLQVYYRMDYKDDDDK
Measurement protocol: SPR, vs unmutated H183/L072
# unit: fold | format: bare number

dBBDu183H D101S/dBBDu072L (antibody, name in Kabat numbering, V domains shown) VH: QVQLVESGGGLVQPGRSLRLSCAASGFTFSNAWMHWVRQAPGKGLEWVAQIKDKGNAYAAYYAPSVKGRFTISRDDSKNSIYLQMNSLKTEDTAVYYCHYVHYASASTVLPAFGVSAWGQGTTVTVSS VL: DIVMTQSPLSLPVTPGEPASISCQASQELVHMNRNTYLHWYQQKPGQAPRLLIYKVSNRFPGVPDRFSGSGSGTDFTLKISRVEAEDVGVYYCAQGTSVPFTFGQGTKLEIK	0.6

Short answer for dBBDu183H A100S/dBBDu072L (antibody, name in Kabat numbering, V domains shown) VH: QVQLVESGGGLVQPGRSLRLSCAASGFTFSNAWMHWVRQAPGKGLEWVAQIKDKGNAYAAYYAPSVKGRFTISRDDSKNSIYLQMNSLKTEDTAVYYCHYVHYASSSTVLPAFGVDAWGQGTTVTVSS VL: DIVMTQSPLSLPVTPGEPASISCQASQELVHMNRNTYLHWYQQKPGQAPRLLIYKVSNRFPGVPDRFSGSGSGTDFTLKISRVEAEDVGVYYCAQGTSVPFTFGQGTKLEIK : fold change of affinity was 1.1
